Answer each item with its documented pKd.
Biological target: recombinant GST-SNAP25197 (UniProt P60880 1-197)
Sequence (P60880 1-197 limits assumed): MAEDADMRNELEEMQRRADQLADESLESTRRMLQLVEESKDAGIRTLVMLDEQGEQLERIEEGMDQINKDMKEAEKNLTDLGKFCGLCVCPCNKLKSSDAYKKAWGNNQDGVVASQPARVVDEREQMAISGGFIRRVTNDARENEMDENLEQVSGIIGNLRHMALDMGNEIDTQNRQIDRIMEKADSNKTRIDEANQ
// pKd: -log10(molar conc.)

Query :: Look up pKd: C7 IgG (antibody, V domains shown, also called C7 IgG2a) VH: QVQLVETGGGLVQPKGSLKLSCAASGFTFNTNAMNWVRQAPGKGLEWVARIRSKSNNYATYYADSVKDRFTISRDDSQSLLYLQMNNLKTEDTAMYYCVYGRSYGGLSYWGQGTLVTVSA VL: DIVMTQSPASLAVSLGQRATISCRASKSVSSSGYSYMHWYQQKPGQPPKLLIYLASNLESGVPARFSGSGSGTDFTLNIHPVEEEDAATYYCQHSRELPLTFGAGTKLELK
Result :: 11.89

Query :: Param item: C4 IgG (antibody, V domains shown) VH: DVKLQESGPGLVKPSQSLSLTCTVTGYSITSDYAWNWIRQFPGNKLEWMGYISYSVGTRYNPSLKSRISITRDTSKNQFFLLLKSVTNEDTATYFCARKGEYGFAYWGQGTLVTVSA VL: DIVMTQSPASLAVSLGQRATISCRASKSVSTSGYSYMHWYQQKPGQPPKLLIYLASNLESGVPARFSGSGSGTDFTLNIHPVEEEDAATYYCQHSRELPLTFGAGTKLELK
Result :: 11.97

Query :: Param item: C24 IgG (antibody, V domains shown) VH: EVKLVESGGGLVQPKGSLKLSCAASGYTFNTYAMNWVRQAPGKGLEWVARIRSKSNNYTTYYADSVKDRFTISRDDSQSMLYLQINNLKTEDTAMYYCVGQILYYYVGSPAWFAYWGQGTLVTVSA VL: DIVMTQSPASLAVSLGQRATISCRASKSVSTSGYSYMHWYQQKPGQPPKLLIFLASNLESGVPARFSGSGSGTDFTLNIHPVEEEDAATYYCQHSRELPWTFGGGTKLEIK
Result :: 11.94
